# Species on record: Rattus norvegicus
# protocol_description: DrugMatrix - Regimen: Daily Repeat
# Type: toxicity, organism-based, Sprague-Dawley
# Design: regimen Daily Repeat, gender Male, age 6-8 weeks
# measurement_setup: in vivo, po, 0 mg/kg, 120 h, tissue Plasma, route oral GAVAGE, dose level Control, time 5 day, […]
Would you mind telling me the reported CHOLESTEROL of each entry?
Write the answer as a number in mg/dL, unit excluded.

[in] Quote CHOLESTEROL reported for `CC(=O)Nc1cccc(O)c1` please.
[out] 69.5

[in] Quote CHOLESTEROL reported for CCOC(=O)C1=C(C)NC(C)=C(C(=O)OC)C1c1cccc([N+](=O)[O-])c1 (stereo unspecified) please.
[out] 55.33

[in] Quote CHOLESTEROL reported for CC(C)Cc1ccc(C(C)C(=O)O)cc1 (stereo unspecified) please.
[out] 65.67

[in] Quote CHOLESTEROL reported for `C[C@H]1O[C@@H](O[C@H]2[C@@H](O)C[C@H](O[C@H]3[C@@H](O)C[C@H](O[C@H]4CC[C@@]5(C)[C@H](CC[C@@H]6[C@@H]5CC[C@]5(C)[C@@H](C7=CC(=O)OC7)CC[C@]65O)C4)O[C@@H]3C)O[C@@H]2C)C[C@H](O)[C@@H]1O` please.
[out] 56.5

[in] Quote CHOLESTEROL reported for `CCCCCCCCc1ccc(O)cc1` please.
[out] 54.5

[in] Quote CHOLESTEROL reported for `O=NN(CCCl)C(=O)NCCCl` please.
[out] 66.83

###

# Organism: Rattus norvegicus
# protocol_description: DrugMatrix - Regimen: Daily Repeat
# Type: toxicity, organism-based, Sprague-Dawley
# Design: regimen Daily Repeat, gender Male, age 6-8 weeks
# measurement_setup: in vivo, po, 1500 mg/kg, 72 h, tissue Plasma, route oral GAVAGE, dose level High, time 3 day, vehicle .5 % CMC
measured_parameter: CHOLESTEROL

[in] Quote CHOLESTEROL reported for NC(=O)c1cnccn1 [PYRAZINAMIDE] please.
[out] 73 mg/dL

[in] Quote CHOLESTEROL reported for Cc1ccc(S(=O)(=O)NC(=O)NN2CC3CCCC3C2)cc1 (stereo not given) [GLICLAZIDE] please.
[out] 39.33 mg/dL

[in] Quote CHOLESTEROL reported for C[C@]1(Cn2ccnn2)[C@H](C(=O)O)N2C(=O)C[C@H]2S1(=O)=O [TAZOBACTAM] please.
[out] 73.33 mg/dL

[in] Quote CHOLESTEROL reported for CNC(=C[N+](=O)[O-])NCCSCc1ccc(CN(C)C)o1 [RANITIDINE] please.
[out] 68 mg/dL

[in] Quote CHOLESTEROL reported for Cc1cc(=O)n(-c2ccccc2)n1C [ANTIPYRINE] please.
[out] 76 mg/dL

###

# Species: Rattus norvegicus
# protocol_description: DrugMatrix - Regimen: Daily Repeat
# Type: toxicity, organism-based, Sprague-Dawley
# Set-up: regimen Daily Repeat, gender Male, age 6-8 weeks
# measurement_setup: in vivo, po, 0 mg/kg, 120 h, tissue Blood, route oral GAVAGE, dose level Control, time 5 day, […]
measured_parameter: MEAN CORPUSCULAR HEMOGLOBIN (pg)
Write the answer as a number in pg, unit excluded.

[in] Quote MEAN CORPUSCULAR HEMOGLOBIN reported for CC(C)(Oc1ccc(C2CCCc3ccccc32)cc1)C(=O)O (stereo not drawn) [NAFENOPIN] please.
[out] 23.25

[in] Quote MEAN CORPUSCULAR HEMOGLOBIN reported for CCOC(=O)C1=C(C)NC(C)=C(C(=O)OC)C1c1cccc([N+](=O)[O-])c1 (stereo not drawn) [NITRENDIPINE] please.
[out] 24.13

[in] Quote MEAN CORPUSCULAR HEMOGLOBIN reported for CCCCCCCCc1ccc(O)cc1 [4-OCTYLPHENOL] please.
[out] 24.42

###

Would you mind telling me the reported POTASSIUM of each entry?
# Species: Rattus norvegicus
# protocol_description: DrugMatrix - Regimen: Daily Repeat
# Type: toxicity, organism-based, Sprague-Dawley
# Set-up: regimen Daily Repeat, gender Male, age 6-8 weeks
# measurement_setup: in vivo, po, 0 mg/kg, 120 h, tissue Plasma, route oral GAVAGE, dose level Control, time 5 day, […]
Write the answer as a number in MEQ/L, unit excluded.

[in] Quote POTASSIUM reported for CC/C(=C(/CC)c1ccc(O)cc1)c1ccc(O)cc1 [DIETHYLSTILBESTROL] please.
[out] 5.72

[in] Quote POTASSIUM reported for Cc1cccc(Nc2ccncc2S(=O)(=O)NC(=O)NC(C)C)c1 [TORSEMIDE] please.
[out] 5.78

[in] Quote POTASSIUM reported for O=NN(CCCl)C(=O)NCCCl [CARMUSTINE] please.
[out] 5.34

[in] Quote POTASSIUM reported for CC(=O)Nc1ccc(O)cc1 [ACETAMINOPHEN] please.
[out] 5.34

[in] Quote POTASSIUM reported for C[C@]12CC[C@@H]3c4ccc(O)cc4CC[C@H]3[C@@H]1CC[C@@H]2O [ESTRADIOL] please.
[out] 5.78

[in] Quote POTASSIUM reported for CC(=O)Nc1cccc(O)c1 [METACETAMOL] please.
[out] 6.36

[in] Quote POTASSIUM reported for C[C@H]1O[C@@H](O[C@H]2[C@@H](O)C[C@H](O[C@H]3[C@@H](O)C[C@H](O[C@H]4CC[C@@]5(C)[C@H](CC[C@@H]6[C@@H]5CC[C@]5(C)[C@@H](C7=CC(=O)OC7)CC[C@]65O)C4)O[C@@H]3C)O[C@@H]2C)C[C@H](O)[C@@H]1O [DIGITOXIN] please.
[out] 5.46

[in] Quote POTASSIUM reported for COCCOC(=O)C1=C(C)NC(C)=C(C(=O)OC(C)C)C1c1cccc([N+](=O)[O-])c1 (stereo not drawn) [NIMODIPINE] please.
[out] 5.13

###

Would you mind telling me the reported TOTAL BILIRUBIN of each entry?
# Organism: Rattus norvegicus
# protocol_description: DrugMatrix - Regimen: Daily Repeat
# Assay type: toxicity, organism-based, Sprague-Dawley
# Design: regimen Daily Repeat, gender Male, age 6-8 weeks
# measurement_setup: in vivo, iv, 0 mg/kg, 72 h, tissue Plasma, dose level Control, time 3 day, vehicle 100 % SALINE
Write the answer as a number in mg/dL, unit excluded.

[in] Quote TOTAL BILIRUBIN reported for `CC[C@]1(O)C[C@@H]2CN(CCc3c([nH]c4ccccc34)[C@@](C(=O)OC)(c3cc4c(cc3OC)N(C)[C@H]3[C@@](O)(C(=O)OC)[C@H](OC(C)=O)[C@]5(CC)C=CCN6CC[C@]43[C@@H]65)C2)C1` please.
[out] 0.15

[in] Quote TOTAL BILIRUBIN reported for `CCc1c2c(nc3ccc(OC(=O)N4CCC(N5CCCCC5)CC4)cc13)-c1cc3c(c(=O)n1C2)COC(=O)[C@]3(O)CC` please.
[out] 0.2

[in] Quote TOTAL BILIRUBIN reported for `COc1cccc2c1C(=O)c1c(O)c3c(c(O)c1C2=O)C[C@@](O)(C(=O)CO)C[C@@H]3O[C@H]1C[C@H](N)[C@H](O)[C@H](C)O1` please.
[out] 0.17

[in] Quote TOTAL BILIRUBIN reported for COc1cccc2c1C(=O)c1c(O)c3c(c(O)c1C2=O)C[C@@](O)(C(=O)CO)C[C@@H]3O[C@H]1C[C@H](N)[C@@H](O)[C@H](C)O1 [EPIRUBICIN] please.
[out] 0.2

###

# Species: Rattus norvegicus
# protocol_description: DrugMatrix - Regimen: Daily Repeat
# Format: toxicity, organism-based, Sprague-Dawley
# Parameters: regimen Daily Repeat, gender Male, age 6-8 weeks
# measurement_setup: in vivo, po, 0 mg/kg, 72 h, tissue Plasma, route oral GAVAGE, dose level Control, time 3 day, […]
measured_parameter: ALBUMIN (G/DL)
Write the answer as a number in G/DL, unit excluded.

[in] Quote ALBUMIN reported for `C[C@]12CC[C@@H]3c4ccc(O)cc4CC[C@H]3[C@@H]1CC[C@@H]2O` please.
[out] 4

[in] Quote ALBUMIN reported for CC(C)Cc1ccc(C(C)C(=O)O)cc1 (centres undefined) please.
[out] 4.07

[in] Quote ALBUMIN reported for COCCOC(=O)C1=C(C)NC(C)=C(C(=O)OC(C)C)C1c1cccc([N+](=O)[O-])c1 (centres undefined) please.
[out] 3.97

[in] Quote ALBUMIN reported for `CCCCCCCCc1ccc(O)cc1` please.
[out] 4.03

###

# Organism: Rattus norvegicus
# protocol_description: DrugMatrix - Regimen: Daily Repeat
# Type: toxicity, organism-based, Sprague-Dawley
# Parameters: regimen Daily Repeat, gender Male, age 6-8 weeks
# measurement_setup: in vivo, po, 0 mg/kg, 72 h, tissue Blood, route oral GAVAGE, dose level Control, time 3 day, vehicle 100 % WATER
measured_parameter: EOSINOPHIL (%)
Write the answer as a number in %, unit excluded.

[in] Quote EOSINOPHIL reported for C[C@@H]1C[C@@H]([C@H](O)CC2CC(=O)NC(=O)C2)C(=O)[C@@H](C)C1 [CYCLOHEXIMIDE] please.
[out] 0.17

[in] Quote EOSINOPHIL reported for `Nc1ccn([C@@H]2CS[C@H](CO)O2)c(=O)n1` please.
[out] 0

[in] Quote EOSINOPHIL reported for C[N+](C)(C)CCO.[Cl-] [CHOLINE CHLORIDE] please.
[out] 0

[in] Quote EOSINOPHIL reported for ClC(Cl)Cl [CHLOROFORM] please.
[out] 0.67

[in] Quote EOSINOPHIL reported for `CC(C)C[C@H](NC(=O)[C@@H](O)[C@H](N)Cc1ccccc1)C(=O)O` please.
[out] 1.17

[in] Quote EOSINOPHIL reported for COC(=O)C1=C(C)NC(C)=C(C(=O)OCC(C)C)C1c1ccccc1[N+](=O)[O-] (stereo unspecified) please.
[out] 0
